# ASSAY: cell survival after pyrene fatty acid photosensitization – ZR-82 cells, Analyticon library, screen 2, phospholipid biosynthesis inhibitor project, primary screen (AID 1347383);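 also: survival reflects blocked phospholipid synthesis cutting uptake of the phototoxic fatty acid; compound and fatty acid exposure 3 h then viability read next day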
# CONDITION SET: ZR-82 CHO cells, pyrene-fatty acid UV killing, CellTiter Blue; at 10 µM; peroxisome-deficient CHO-K1 variant; with DGAT-1, DGAT-2 and ACAT inhibitors
The source made the active and inactive calls.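 The calls were made as follows: active = cell survival after UV exposure 2 SD above solvent-only control wells at 10 µM, confirmed on one or two repeats; inactive = the rest.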
RESULT TYPE: outcome

CC(C)(O)[C@@H]1CCC(C)([C@H]2CC[C@]3(C)[C@@H]2[C@H](O)CC2[C@@]4(C)CC[C@H](O)C(C)(C)[C@@H]4CC[C@]23C)O1 (stereo not given in full) = inactive
Oc1cc(O)c2c(c1)O[C@H](c1ccc(O)c(O)c1)[C@H](O)C2 = inactive
O=C1CCC(=O)NCCCCCN(O)C(=O)CCC(=O)NCCCCCN(O)C(=O)CCC(=O)NCCCCCN1 = inactive
COc1cc(C(=O)/C(C)=C(\C)C(=O)c2ccc(O)c(OC)c2)ccc1O = inactive
O=c1ccc2ccc(O[C@@H]3O[C@H](CO)[C@@H](O)[C@H](O)[C@H]3O)cc2o1 = inactive
C/C=C/c1cc(O)c(C(=O)C(=O)CC)c(=O)o1 = inactive
CCC/C=C\CC(N)CC(=O)O (stereo not given) = inactive
CC1CCC2C(C(=O)O)=CC3C(O)C(C)(C)CC123 (stereo not given) = inactive
C=C[C@H]1CN2CC[C@H]1C[C@@H]2C(O)c1ccnc2ccc(OC)cc12 (stereo not given in full) = inactive
Cn1c2c(c(=O)c3cc(O)ccc31)CC(C(C)(C)O)O2 (stereo not given) = inactive
